Consider the following compounds; for each one, report its TGI.
System: U251 CNS
PROTOCOL: NCI tumour cell line growth inhibition, 48 h

# COMPOUND, ASSAYED_TARGET, TGI
rows = [
    ("Nc1nc(-c2ccco2)cc(-c2ccco2)n1", "U251 CNS", "> 100 µM"),
    ("c1coc(C2=Nc3cccc4cccc(c34)N2)c1", "U251 CNS", "> 100 µM"),
    ("COc1cc([C@@H]2c3cc4c(cc3[C@@H](Nc3ccc(N=Cc5ccc(C(=O)O[C@@H](C(=O)O[C@H]6C[C@@]7(O)[C@@H](OC(=O)c8ccccc8)[C@@H]8[C@]9(OC(C)=O)CO[C@@H]9C[C@H](O)[C@@]8(C)C(=O)[C@H](OC(C)=O)C(=C6C)C7(C)C)[C@@H](NC(=O)c6ccccc6)c6ccccc6)cc5)cc3)[C@H]3COC(=O)[C@H]23)OCO4)cc(OC)c1O", "U251 CNS", "35.4 µM"),
    ("CC1=NC(C)(C)[N+]([O-])=C1", "U251 CNS", "> 10 µM"),
    ("Cc1ccc(C(=O)O)cc1NC(=O)c1cc(/C=C/c2ccccc2)[nH]c(=S)n1", "U251 CNS", "> 100 µM"),
    ("[N-]=[N+]=Nc1c(Cc2ccccc2)c(=O)oc2ccccc12", "U251 CNS", "69.7 µM"),
]

For each of the compounds below, state TGI.
1. C#CCn1cnc2cnc(Nc3cccc(NC(=O)CCl)c3)nc21
2. Clc1cccc(Cl)c1C1SCc2nc3ccccc3n21 (stereo not drawn)

1: > 62.5 µM; 2: > 100 µM

###

Consider the following compounds; for each one, report its TGI.
Test system: M14 melanoma
PROTOCOL: NCI tumour cell line growth inhibition, 48 h
Residues, ends and D or L forms follow the SMILES beside them. *: point of attachment. Boc = CC(C)(C)OC(=O)*; OBn = c1ccc(CO*)cc1

Reference set, count: 5
# COMPOUND, ASSAY_RESULT
records = [
    ("CO[C@@H]1C[C@H](OC(N)=O)[C@@H]2C=C[C@@H]3/C=C(C)/C=C/[C@@H](C)[C@H]([C@H](C)[C@H](O)[C@@H](C)NC(C)=O)OC(=O)/C=C/C=C(C)\\C=C\\[C@]3(C)[C@@H]2C1", "1.62 µM"),
    ("O=C1c2[nH]c3ccccc3c2CCN2CCCCC12 (centres undefined)", "35.3 µM"),
    ("CC(C)CC(NC(=O)OC(C)(C)C)C(=O)NC(CC(=O)OCc1ccccc1)C(N)=O (stereo not drawn) (Boc-Leu-Asp(OBn)-NH2; configuration not given here)", "> 100 µM"),
    ("O=c1c(-c2ccccc2)c2n(c3ccccc13)CCN2", "> 100 µM"),
    ("COc1cccc2c1N[S@](=O)S2", "> 100 µM"),
]

For each of the compounds below, state TGI.
1. CC(C)(Cl)C(Br)CCC(C)(Br)C(Br)CBr (centres undefined)
2. CCOC(=O)C1C(=O)C=C(c2cc(C)ccc2O)CC1c1cccc(Cl)c1 (centres undefined)
3. CCOC(=O)C1C(O)CC2c3ccccc3-c3ccccc3C21 (centres undefined)
4. COc1cc(/C=N/n2c(-c3ccccc3)n[nH]c2=O)cc(OC)c1OC

33.7 µM
> 100 µM
> 100 µM
> 100 µM

###

System: MDA-MB-435
Just give me one of these, please: active, inactive

Please review the entries below; each comes with its answer.
# SMILES_REPRESENTATION, ASSIGNED_CLASS
records = [
    ("O=C(/C=C/c1ccc(Cl)cc1)c1ccc(Nc2nc(Nc3ccc(F)cc3)nc(Nc3ccc(F)cc3)n2)cc1", "inactive"),
    ("c1ccc2cc(C[n+]3ccn(CCCCCCCCCCCCn4cc[n+](Cc5ccc6ccccc6c5)c4)c3)ccc2c1", "inactive"),
    ("CC1=C2O[C@]3(O)C=C2C(=C(O)C1=O)[C@@H]1O[C@H](CC[C@H](C)/C=C(\\C)C[C@@H](C)C[C@@H]3C)[C@H](C)[C@H](O)[C@H]1C", "active"),
    ("c1cc2c(s1)SSSSS2", "inactive"),
    ("c1ccc([P+](c2ccccc2)(c2ccccc2)c2ccc3c4ccc([P+](c5ccccc5)(c5ccccc5)c5ccccc5)c5cccc(c6cccc2c63)c54)cc1", "inactive"),
]

Outcome? NCCCOc1cc2ccccc2cc1C(=O)NCCOc1nc2ccccc2cc1C(=O)Nc1ccc(Cl)cc1O
inactive

Outcome? CCC(CC)c1nc(Nc2cccc(OC)c2)c2ccccc2n1
inactive

Outcome? O=C(c1ccc(Cl)cc1)c1no[n+]([O-])c1C(=O)c1ccc(Cl)cc1
inactive

Outcome? O=C(COc1nc2ccccc2nc1-c1ccccc1)Nc1ccc(Cl)cc1
inactive

###

Tested on: SF-539 CNS
PROTOCOL: NCI tumour cell line growth inhibition, 48 h
MEASURED_ENDPOINT: GI50

# SMILES_REPRESENTATION, GI50
rows = [
    ("O=C(COc1nc2ccccc2nc1-c1ccccc1)Nc1ccc(Cl)cc1", "14.5 µM"),
    ("NCCCCCCCCCCn1c2c(c3ccccc3c1=O)C(=O)c1ccccc1-2", "1.83 µM"),
]

Let me know recorded GI50 for C[n+]1c(-c2ccccc2)c2cc(N)ccc2c2ccccc21 , thanks.
3.49 µM

###

Test system: IGROV1 ovarian
PROTOCOL: NCI tumour cell line growth inhibition, 48 h; in the data active = GI50 below about 0.43 µM; inactive = the rest
Just give me one of these, please: t (active), f (inactive)

Please review the entries below; each comes with its answer.
# COMPOUND, ASSIGNED_CLASS
rows = [
    ("Nc1nonc1C(=Nc1ccc(F)c(Cl)c1)NO", "f"),
    ("O=C(/C=C/c1ccc(Cl)cc1)c1ccc(Nc2nc(Nc3ccc(F)cc3)nc(Nc3ccc(F)cc3)n2)cc1", "f"),
    ("CCC[CH2][Sn]1([CH2]CCC)[O]C(=O)c2cccc(C)c2[O]1", "f"),
    ("CN(C)c1cc[n+](/C(NS(=O)(=O)c2cc(C(=O)Nc3ccc(Cl)cc3)c(Cl)cc2[S-])=C(\\C#N)C(=O)c2ccccc2)cc1", "f"),
    ("COc1cc(/C=C/c2cc(/C=C/c3ccc(O)c(OC)c3)n(-c3c(Cl)cccc3Cl)c(=O)n2)ccc1O", "f"),
]

Next item in the queue.
Outcome? O=c1c2cc(F)ccc2sc2c(Nc3ccncc3)nc3ccccc3c12
f

###

Test system: CCRF-CEM leukemia
PROTOCOL: NCI tumour cell line growth inhibition, 48 h
MEASURED_ENDPOINT: TGI

Reference set, count: 2
# COMPOUND, ASSAY_RESULT
measured = [
    ("OC1c2ccccc2CCC1C(O)(C(F)(F)F)C(F)(F)F (stereo unspecified)", "> 100 µM"),
    ("COc1cc(OC)c2c(c1-c1ccc(C)cc1)CC(C)N(Cc1ccccc1)[C@H]2C (stereo partly specified)", "> 100 µM"),
]

For each of the compounds below, state TGI.
1. O=C1C(Cl)=C(Cl)C(=O)C2=C1C1c3ccccc3C2c2ccccc21
2. CCOC(=O)C(=O)/C(=C/n1c(=S)[nH]c2ccc([N+](=O)[O-])cc21)C(=O)OCC
3. CCC(=O)c1cc(C(=O)C(=S)SC)cc(C(=O)C(=S)SC)c1
4. CN(C)CCNc1ccc2nnn3c4ccccc4c(=O)c1c23

1: > 100 µM; 2: > 100 µM; 3: > 24.6 µM; 4: 20.6 µM

###

Consider the following compounds; for each one, report its TGI.
System: DMS 114 small cell lung
PROTOCOL: NCI tumour cell line growth inhibition, 48 h
Answers are plain numbers, in µM.

Reference set, count: 3
# COMPOUND, TGI, µM
records = [
    ("CCCCCC(=O)N[C@H]1CCc2cc(O)c(O)c(O)c2-c2ccc(SC)c(=O)cc21", 24),
    ("COc1ccc(/C(=N/O)C(c2ccc(OC)cc2)C2C(=O)Oc3ccccc32)cc1 (stereo not drawn)", 79.9),
    ("O=C(CC1(O)C(=O)Nc2c(Cl)ccc(Cl)c21)c1ccco1 (stereo not drawn)", 33.5),
]

Here is the next item to consider.
Let me know recorded TGI for CCOc1ccc(N=Nc2ccc3oc(=O)c(/C(C)=N/NC(=O)CC(=O)Nc4cccc(OC)c4)cc3c2)cc1 , thanks.
44.5

###

Tested on: SF-268 CNS
PROTOCOL: NCI tumour cell line growth inhibition, 48 h
Consider the following compounds; for each one, report its TGI.

Reference set, count: 8
# COMPOUND, MEASURED_ENDPOINT, ASSAY_RESULT
data = [
    ("O=C1Nc2ccccc2/C1=C\\c1c(Cl)nc2sccn12", "TGI", "29.5 µM"),
    ("CC(=O)OC1C2CCC1C1C2N=NN1c1ccc([N+](=O)[O-])cc1 (stereo not given)", "TGI", "> 100 µM"),
    ("COc1cc(/C=N/n2c(-c3ccccc3)n[nH]c2=O)cc(OC)c1OC", "TGI", "40.7 µM"),
    ("CC(=O)O[C@H]1C(=O)[C@@]2(C)[C@H]([C@H](OC(=O)c3ccccc3)[C@]3(O)C[C@H](OC(=O)[C@H](O)[C@@H](NC(=O)c4ccccc4)c4ccccc4C)C(C)=C1C3(C)C)[C@]1(OC(C)=O)CO[C@@H]1C[C@@H]2O", "TGI", "> 25 µM"),
    ("CCOC(=O)N1C/C(=C/c2ccc(Cl)cc2)C(=O)/C(=C/c2ccc(Cl)cc2)C1", "TGI", "14.7 µM"),
    ("CC(C)OC(=O)[C@@H]1OC(C)(C)O[C@H]1C(=O)OC(C)C", "TGI", "> 100 µM"),
    ("CC(=O)NCCC1CNc2ccccc21 (stereo not given)", "TGI", "> 100 µM"),
    ("Clc1cccc(Cl)c1C1SCc2nc3ccccc3n21 (stereo not given)", "TGI", "> 100 µM"),
]

For each of the compounds below, state TGI.
1. CCOC(=O)C1CCCCN1C(=O)OCc1ccccc1 (stereo not given)
2. CNCCCCN(C)/[N+]([O-])=N\O

["> 100 µM", "> 100 µM"]
